Each entry below lists one item and its recorded ED50 (ng/ml calicheamicin), MTS vital dye, MDAMB435/5T4 cells value.
Molecular target: T1, human 5T4 antigen on cells (human, UniProt Q13641 32-420)
T1 construct: whole, on cells; also called 5T4 on MDAMB435/5T4 cells; 5T4 on CT26/5T4 cells
T1 sequence (looked up): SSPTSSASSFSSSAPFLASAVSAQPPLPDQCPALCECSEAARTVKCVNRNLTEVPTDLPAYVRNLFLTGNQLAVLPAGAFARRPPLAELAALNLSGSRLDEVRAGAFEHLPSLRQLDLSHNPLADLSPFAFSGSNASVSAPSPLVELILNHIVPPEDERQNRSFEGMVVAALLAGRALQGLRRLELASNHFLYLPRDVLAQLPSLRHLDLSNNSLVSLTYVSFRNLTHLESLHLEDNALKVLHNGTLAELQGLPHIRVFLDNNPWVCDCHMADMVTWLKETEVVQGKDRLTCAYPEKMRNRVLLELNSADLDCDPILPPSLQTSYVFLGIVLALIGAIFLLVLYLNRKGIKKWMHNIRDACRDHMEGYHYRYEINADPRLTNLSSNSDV
Experiment: cell-based or functional assay
I only need the number, in ng/mL, no unit after it.

Worked cases, answers included:
H8-AcBut-CalichDMH (antibody, V domains shown) VH: EVQLQQSGPDLVKPGASVKISCKASGYSFTGYYMHWVKQSHGKSLEWIGRINPNNGVTLYNQKFKDKAILTVDKSSTTAYMELRSLTSEDSAVYYCARSTMITNYVMDYWGQVTSVTVSS VL: SIVMTQTPTFLLVSAGDRVTITCKASQSVSNDVAWYQQKPGQSPTLLISYTSSRYAGVPDRFIGSGYGTDFTFTISTLQAEDLAVYFCQQDYNSPPTFGGGTKLEIK
0.04
H8-AcPac-CalichDMH (antibody, V domains shown) VH: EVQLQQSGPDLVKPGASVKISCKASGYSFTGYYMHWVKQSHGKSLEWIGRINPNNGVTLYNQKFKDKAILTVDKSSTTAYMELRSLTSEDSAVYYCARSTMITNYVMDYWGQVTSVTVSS VL: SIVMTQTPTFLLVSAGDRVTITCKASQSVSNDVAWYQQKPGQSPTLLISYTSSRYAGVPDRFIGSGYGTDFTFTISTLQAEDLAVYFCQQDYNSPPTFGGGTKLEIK
0.02
H8-Amide-CalichDMH (antibody, V domains shown) VH: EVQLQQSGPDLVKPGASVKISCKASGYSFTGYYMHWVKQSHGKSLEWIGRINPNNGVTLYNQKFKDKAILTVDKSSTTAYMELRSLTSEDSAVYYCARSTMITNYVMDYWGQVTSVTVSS VL: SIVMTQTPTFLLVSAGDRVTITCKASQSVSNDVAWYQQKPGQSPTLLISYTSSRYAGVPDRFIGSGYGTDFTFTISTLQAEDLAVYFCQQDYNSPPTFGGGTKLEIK
0.18

Consider now this further binder.
For H8PEGmal2-AcBut-CalichDMH (antibody, V domains shown) VH: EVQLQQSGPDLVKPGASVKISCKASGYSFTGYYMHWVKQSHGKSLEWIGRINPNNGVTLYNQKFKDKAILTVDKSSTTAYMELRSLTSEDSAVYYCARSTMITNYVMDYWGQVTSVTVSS VL: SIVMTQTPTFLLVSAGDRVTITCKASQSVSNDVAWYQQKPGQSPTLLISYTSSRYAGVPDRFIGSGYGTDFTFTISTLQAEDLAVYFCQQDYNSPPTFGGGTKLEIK the binder record lists ED50 (ng/ml calicheamicin), MTS vital dye, MDAMB435/5T4 cells as 0.9
